# Stated Conditions: victivallis vadensis, 12 h, 2 µM
# Description: The drug is tested on Victivallis vadensis strain: ATCC BAA-548 for biotransformation. The drug concentrations were measured before and after a 12-h incubation by liquid-chromatography-coupled mass spectrometry (LC–MS)
Measure Name: Bacterial Biotransformation

Compound	Bacterial Biotransformation
CC(C)(C)NC(=O)[C@H]1CC[C@H]2[C@@H]3CC[C@H]4NC(=O)C=C[C@]4(C)[C@H]3CC[C@]12C [FINASTERIDE]	Compound NOT metabolized
CN(C)CCc1c[nH]c2ccc(Cn3cncn3)cc12.O=C(O)c1ccccc1 [RIZATRIPTAN BENZOATE]	Compound NOT metabolized
CCN(CC)CCCC(C)Nc1c2ccc(Cl)cc2nc2ccc(OC)cc12 (stereo not drawn)	Compound NOT metabolized
CN1C(C(=O)Nc2ccccn2)=C(O)c2sccc2S1(=O)=O	Compound NOT metabolized
CC(Oc1c(Cl)cccc1Cl)C1=NCCN1 (stereo not drawn)	Compound metabolized
CN(C/C=C/C#CC(C)(C)C)Cc1cccc2ccccc12	Compound NOT metabolized
O=C(O)CCC(=O)O.O=C(O[C@H]1CN2CCC1CC2)N1CCc2ccccc2[C@@H]1c1ccccc1 [SOLIFENACIN SUCCINATE]	Compound NOT metabolized
CC[C@@H](CO)NC(=O)[C@@H]1C=C2c3cccc4c3c(cn4C)C[C@H]2N(C)C1.O=C(O)/C=C\C(=O)O [METHYSERGIDE MALEATE]	Compound metabolized

State its Bacterial Biotransformation: N#Cc1ccc(C(c2ccc(C#N)cc2)n2cncn2)cc1
Compound NOT metabolized

State its Bacterial Biotransformation: CCN(CC)C(=O)C1(c2ccccc2)CC1CN (stereo not drawn)
Compound NOT metabolized

State its Bacterial Biotransformation: CC(=O)Nc1ccc(OC(C)=O)cc1 [DIACETAMATE]
Compound metabolized

State its Bacterial Biotransformation: COc1ccc(/C=C/C(=O)Nc2ccccc2C(=O)O)cc1OC
Compound NOT metabolized

State its Bacterial Biotransformation: CCN(CC)CCNC(C(=O)OCCC(C)C)c1ccccc1.Cl.Cl (stereo not drawn)
Compound NOT metabolized

###

# Assay Procedure: The drug is tested on Providencia rettgeri strain: DSM1131 for biotransformation. The drug concentrations were measured before and after a 12-h incubation by liquid-chromatography-coupled mass spectrometry (LC–MS)
# Type: ADME
# Design: dose 2 uM, timepoint 0 vs 12 hours
# Stated Conditions: 2 µM
Measure Name: Bacterial Biotransformation

Below, 5 compounds whose answers are already recorded.
Compound	Bacterial Biotransformation
O=C(CCCN1CCC(O)(c2ccc(Cl)cc2)CC1)c1ccc(F)cc1	Compound NOT metabolized
COC1=C(OC)C(=O)C(CCCCCCCCCCO)=C(C)C1=O	Compound NOT metabolized
COc1ccc2[nH]c([S+]([O-])Cc3ncc(C)c(OC)c3C)nc2c1 (configuration not stated)	Compound metabolized
C=C[C@H]1CN2CC[C@H]1C[C@H]2[C@H](O)c1ccnc2ccc(OC)cc12.C=C[C@H]1CN2CC[C@H]1C[C@H]2[C@H](O)c1ccnc2ccc(OC)cc12.O.O.O=S(=O)(O)O [QUININE SULFATE]	Compound NOT metabolized
CN1CCC(=C2c3ccccc3CCc3cccnc32)CC1.O=C(O)/C=C\C(=O)O.O=C(O)/C=C\C(=O)O [AZATADINE MALEATE]	Compound NOT metabolized

State its Bacterial Biotransformation: O=C(O)CCC(=O)O.O=C(O[C@H]1CN2CCC1CC2)N1CCc2ccccc2[C@@H]1c1ccccc1 [SOLIFENACIN SUCCINATE]
Compound NOT metabolized

State its Bacterial Biotransformation: COc1ccc2c(c1OC)C(=O)O[C@@H]2[C@H]1c2c(cc3c(c2OC)OCO3)CCN1C
Compound metabolized
